- TGT: T1, human IL-22 (human, UniProt Q9GZX6 34-179)
- T1 construct: also called hIL-22; hIL22
- T1 sequence (looked up): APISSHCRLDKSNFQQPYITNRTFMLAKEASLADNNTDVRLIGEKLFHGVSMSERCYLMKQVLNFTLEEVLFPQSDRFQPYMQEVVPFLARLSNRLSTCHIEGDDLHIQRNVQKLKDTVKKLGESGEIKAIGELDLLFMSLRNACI
- ASSAY_PROCEDURE: SPR (SierraSensors SPR-2), hIL-22 immobilized on chip, antibody injected, Langmuir 1:1 model
ASSAY_ENDPOINT: pKd
Keep it numeric: pKd is minus log10 of the concentration in mol/L.

# example entries with known answers
>>> readout_value("CPS-02 (antibody, V domains shown, Mutant of humanized hum10, whole antibody expressed in CHO cells; also called CPS-hit-02; CSP02) VH: QVQLVQSGAEVKKPGASVKVSCKASGYIFRSYWIHWIRQPPGKGLEWIGRIYPGTGRTYYNEKFKGRVTISADKSISTAYLQWSSLKASDTAMYYCARSYDSSVAYWGQGTLVTVSS VL: AIQLTQSPSSLSASVGDRVTITCSASSSVSYMHWYLQKPGQSPQLLIYKTRKLASGVPSRFSGSGSGTDFTFTISSLEAEDAATYYCQQWSSNPYITFGQGTKVEIKR")
10.60
>>> readout_value("CPS-09 (antibody, V domains shown, Mutant of humanized hum10, whole antibody expressed in CHO cells; also called CPS-hit-09; CSP09) VH: QVQLVQSGAEVKKPGASVKVSCKASGYIFRSYWIHWIRQPPGKGLEWIGRIYPGTGRTYYNEKFKGRVTISADKSISTAYLQWSSLKASDTAMYYCARSYDYSVAYWGQGTLVTVSS VL: AIQLTQSPSSLSASVGDRVTITCSASSSVSYMHWYLQKPGQSPQLLIYETRKLASGVPSRFSGSGSGTDFTFTISSLEAEDAATYYCQQWSSNPYITFGQGTKVEIKR")
10.60

Could you now look at the following binder, please?
Look up and report measured pKd for this entry: CPS-14 (antibody, V domains shown, Mutant of humanized hum10, whole antibody expressed in CHO cells; also called LC-04 / HC-31) VH: QVQLVQSGAEVKKPGASVKVSCKASGYIFTSYWIHWIRQPPGKGLEWIGRIYPGTGRTYYNRKFKGRVTISADKSISTAYLQWSSLKASDTAMYYCARSYDYSVAYWGQGTLVTVSS VL: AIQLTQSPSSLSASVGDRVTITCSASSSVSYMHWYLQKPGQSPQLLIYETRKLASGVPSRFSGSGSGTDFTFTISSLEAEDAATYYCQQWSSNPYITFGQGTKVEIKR
10.50
